- target: HLA-A*33:01
- method-summary: IEDB peptide-MHC binding, purified MHC/competitive/radioactivity; filed as Kd, often an IC50 or EC50 that approximates it; bounds were set here for any values at or beyond the usual limits of such assays
- experimental-setup: source organism: Triticum aestivum
pKd: −log10 of the molar value.
assay-metric: pKd

Lab book: pKd of `VVLQQHNIVH` noted as ≤ 4.55

====

- target: HLA-A*02:12
- method-summary: IEDB peptide-MHC binding, purified MHC/competitive/fluorescence; filed as Kd, often an IC50 or EC50 that approximates it; bounds were set here for any values at or beyond the usual limits of such assays
- experimental-setup: source organism: Listeria monocytogenes serotype 4b str. H7858
pKd: −log10 of the molar value.
assay-metric: pKd

Lab book: pKd of `ITWPRTRHW` noted as ≤ 4.70

All values here come from the Immune Epitope Database (IEDB).
